Listing of recorded melting point by entry.
measured_property: melting point

INSERT INTO results (molecule, measured_property, value_reported) VALUES
  ('CCC(C)c1ccn(-c2ccc(C)c(O/C(=C\OC)C(=O)OC)c2)n1 (centres unmarked) [Compound E-44]', 'melting point', '110 to 113 °C'),
  ('CO/C=C(\Oc1cc(-n2ccc(C(C)(F)F)n2)ccc1C)C(=O)OC [Compound E-68]', 'melting point', '119 to 121 °C'),
  ('CO/C=C(\Oc1cc(-n2ccc(C3CC3)n2)ccc1C)C(=O)OC [Compound E-101]', 'melting point', '115 to 118 °C'),
  ('CO/C=C(\Oc1cc(-n2ccc(C3(F)CC3)n2)ccc1C)C(=O)OC [Compound E-67]', 'melting point', '128 to 131 °C'),
  ('CO/C=C(\Oc1cc(-n2ccc(OC(C)C)n2)ccc1C)C(=O)OC [Compound E-70]', 'melting point', '94 to 97 °C');

* * *

measured_property: melting point

INSERT INTO assay_data (structure_as_smiles, measured_property, value_reported) VALUES
  ('CO/C=C(\Oc1cc(-n2ncc(C3CCCCC3)n2)ccc1C)C(=O)OC', 'melting point', '120 to 122 °C'),
  ('CO/C=C(\Oc1cc(-n2ccc(C(F)(F)F)n2)cc(F)c1C)C(=O)OC', 'melting point', '133 to 135 °C'),
  ('CCc1ccc(-n2ccc(C)n2)cc1O/C(=C\OC)C(=O)OC', 'melting point', '169 to 171 °C'),
  ('CO/C=C(\Oc1cc(-n2ccc(C3(C)CC3)n2)ccc1C)C(=O)OC', 'melting point', '83 to 86 °C'),
  ('CO/C=C(\Oc1cc(-n2cc(Cl)c(OC(C)C)n2)ccc1C)C(=O)OC', 'melting point', '104 to 107 °C'),
  ('CO/C=C(\Oc1cc(-n2ncc(C(F)(F)F)n2)ccc1C)C(=O)OC', 'melting point', '107 to 109 °C'),
  ('CO/C=C(\Oc1cc(-n2cc(Cl)c(Cl)n2)ccc1C)C(=O)OC', 'melting point', '140 to 144 °C'),
  ('CO/C=C(\Oc1cc(-n2ccc(CC#N)n2)ccc1C)C(=O)OC', 'melting point', '120 to 123 °C'),
  ('C/C=C/c1ccn(-c2ccc(C)c(O/C(=C\OC)C(=O)OC)c2)n1', 'melting point', '110 to 112 °C'),
  ('CO/C=C(\Oc1cc(-n2ccc(C(F)(F)Cl)n2)ccc1C)C(=O)OC', 'melting point', '146 to 148 °C');

* * *

Listing of recorded melting point by entry.
measured_property: melting point

INSERT INTO measurements (compound, value_reported) VALUES
  ('CO/C=C(\Oc1cc(-n2ccc(C(F)(F)F)n2)c(F)cc1C)C(=O)OC [Compound E-42]', '104 to 108 °C'),
  ('CO/C=C(\Oc1cc(-n2ccc(COC)n2)ccc1C)C(=O)OC [Compound E-77]', '107 to 110 °C'),
  ('CO/C=C(\Oc1cc(-n2cc(Cl)c(C(C)C)n2)ccc1C)C(=O)OC [Compound E-11]', '95 to 100 °C'),
  ('CO/C=C(\Oc1cc(-n2ccc(C(C)C(F)(F)F)n2)ccc1C)C(=O)OC (stereo not drawn) [Compound E-23]', '119 to 122 °C'),
  ('CO/C=C(\Oc1cc(-n2ccc(C(C)C)n2)ccc1C)C(=O)OC [Compound E-92]', '88 to 91 °C'),
  ('CO/C=C(\Oc1cc(-n2cc(C)c(C3CCCCC3)n2)ccc1C)C(=O)OC [Compound E-113]', '145 to 148 °C'),
  ('CO/C=C(\Oc1cc(-n2ccc(C(C)C)n2)cc(C)c1C)C(=O)OC [Compound E-20]', '103 to 105 °C'),
  ('CO/C=C(\Oc1cc(-n2cc(C)c(C(F)(F)F)n2)ccc1C)C(=O)OC [Compound E-75]', '131 to 134 °C'),
  ('CO/C=C(\Oc1cc(-n2ccc(Cl)n2)ccc1C)C(=O)OC [Compound E-100]', '150 to 152 °C'),
  ('CO/C=C(\Oc1cc(-n2ccc(C)n2)c(F)cc1C)C(=O)OC [Compound E-64]', '134 to 138 °C'),
  ('CO/C=C(\Oc1cc(-n2ccc(I)n2)ccc1C)C(=O)OC [Compound E-78]', '156 to 159 °C'),
  ('CCOc1ccn(-c2ccc(C)c(O/C(=C\OC)C(=O)OC)c2)n1 [Compound E-94]', '94 to 96 °C');
